molecular target: HYAL (hyaluronidase); construct: gene SPAM1; assay: hyaluronidase inhibition assay (Matczak et al.); assay type: biochemical; settings: eight-point curve; read-out: HYAL / IC50 (μg GAE/mL; μM) ^b
Property Label: IC50 (µM)

Compound	Target Or Test System	Unit String	IC50
Oc1cc(O)c2c(c1)O[C@H](c1ccc(O)c(O)c1)[C@H](O)[C@H]2c1c(O)cc(O)c2c1O[C@H](c1ccc(O)c(O)c1)[C@H](O)C2 [PB2]	HYAL (hyaluronidase)	µM	37.4
C[C@@H]1C[C@H]2[C@@H]3CCC4=CC(=O)C=C[C@]4(C)[C@@]3(F)[C@@H](O)C[C@]2(C)[C@@]1(O)C(=O)CO [DEX]	HYAL (hyaluronidase)	µM	36.1

I: COc1ccc2c(c1)c(CC(=O)O)c(C)n2C(=O)c1ccc(Cl)cc1 [IND]
II: O=c1c(O)c(-c2ccc(O)c(O)c2)oc2cc(O)cc(O)c12 [compound 39, QU]
III: COC(=O)c1ccccc1O[C@@H]1O[C@H](CO[C@@H]2OC[C@@H](O)[C@H](O)[C@H]2O)[C@@H](O)[C@H](O)[C@H]1O [compound 18]
Ranking field: IC50; order: falling. Thanks in advance for listing the labels in the requested order.
II, III, I

====

biological target: LOX (lipoxygenase); construct: gene LOX1.1; experiment: lipoxygenase inhibition assay (Matczak et al.); assay type: biochemical; conditions: eight-point curve; read-out: LOX / IC50 (mg GAE/mL; mM) ^b
Property Label: IC50 (mM)

Molecule	Target Or Test System	IC50 [mM]
COc1ccc2c(c1)c(CC(=O)O)c(C)n2C(=O)c1ccc(Cl)cc1 [IND]	LOX (lipoxygenase)	0.26
O=c1c(O)c(-c2ccc(O)c(O)c2)oc2cc(O)cc(O)c12 [compound 39, QU]	LOX (lipoxygenase)	0.3
C[C@@H]1C[C@H]2[C@@H]3CCC4=CC(=O)C=C[C@]4(C)[C@@]3(F)[C@@H](O)C[C@]2(C)[C@@]1(O)C(=O)CO [DEX]	LOX (lipoxygenase)	0.3

A: Oc1cc(O)c2c(c1)O[C@H](c1ccc(O)c(O)c1)[C@H](O)[C@H]2c1c(O)cc(O)c2c1O[C@H](c1ccc(O)c(O)c1)[C@H](O)C2 [PB2]
B: COC(=O)c1ccccc1O[C@@H]1O[C@H](CO[C@@H]2OC[C@@H](O)[C@H](O)[C@H]2O)[C@@H](O)[C@H](O)[C@H]1O [compound 18]
# query: argmin of IC50 over A and B State your choice using its label.
A
(A: 0.29 mM, B: 1.26 mM)
